Measured values drawn from PubChem BioAssay AID256 for this set.

System: CD2F1 mice, L1210 leukemia ip, survival T/C
Assay: NCI In Vivo Anticancer Drug Screen. Data for tumor model L1210 Leukemia (intraperitoneal) in CD2F1 (CDF1) mice
Conditions: endpoint: mean survival time; dose: 400.0 mg/kg/injection; schedule: Q04DX003 (ip); vehicle: saline with Tween-80; higher = longer survival
Inconclusive results and toxic doses are left out.
Exercise: state measured T/C for each of the compounds provided.

Worked cases, T/C given:
{"columns": ["compound", "result"],
 "data": [
  ["CC1(C)CC(=O)C2(C)CCC3(CC2C1)OCCO3 (stereo not given)", "96 % of control"],
  ["O=C(COc1ccc(Cl)cc1Cl)Nc1cc[n+](Cc2ccc(S(=O)(=O)F)cc2)cc1", "95 % of control"],
  ["COc1ccc(C(=O)CC(C(=O)O)c2ccc3c(c2)OCO3)cc1OC (stereo not given)", "101 % of control"],
  ["O=C(SC(=O)c1ccccc1)c1ccccc1", "94 % of control"],
  ["COc1ccc(C=NC2CC(C)CCC2C)c(OC)c1 (stereo not given)", "95 % of control"]
]}

Value sought for every listed compound: T/C.
1. CN(C)S(=O)(=O)Oc1ccccc1N
2. Cc1cc(C)c(C)c(Br)c1
3. CC1CC2(C)C(CC1=O)CC(C)C1C3CCC(O)C3(C)CCC12 (stereo not given)
4. CCCCCCCOc1ccc(N=[N+]([O-])c2ccc(OCCCCCCC)cc2)cc1
5. Cc1ccc(C2(c3ccccc3)c3ccccc3C(=O)N2c2ccccc2)cc1 (stereo not given)

94 % of control
102 % of control
95 % of control
89 % of control
103 % of control

Value sought for every listed compound: T/C.
1. CO/C=C1\Cc2cc(OC)c(OC)cc2C1=O
2. CCC1C(=O)NC(=O)NC1=O
3. CC(=O)N(c1c(F)c(F)cc(F)c1F)c1c(F)c(F)cc(F)c1F
4. CCn1c(C)nc2cc(C(N)=O)ccc21
5. O=C([O][Sb]([O]C(=O)C(Br)Br)([c]1ccccc1)([c]1ccccc1)[c]1ccccc1)C(Br)Br
6. O=C(O)/C(=C\c1cccc([N+](=O)[O-])c1)c1ccccc1
7. CN(C)CCOc1ccccn1
8. O=C1CCCCC1(c1ccccc1)c1ccccc1

1: 102 % of control; 2: 96 % of control; 3: 98 % of control; 4: 102 % of control; 5: 95 % of control; 6: 100 % of control; 7: 87 % of control; 8: 97 % of control

Value sought for every listed compound: T/C.
1. O=C(N1CCC2(CC1)SSC1(CCN(C(=O)C(F)(F)F)CC1)S2)C(F)(F)F
2. COc1ccc(CCNC(=O)Cc2cc(OC)c(OC)cc2Br)cc1OC
3. O=P(=O)OP(=O)=O.[O]=[W](=[O])=[O]
4. CN(CCl)S(=O)(=O)c1ccccc1
5. Cn1c(=O)c2[nH]c(-c3ccc4c(c3)OCO4)nc2n(C)c1=O
6. CC1(C)C/C(=C\c2cc(O)ccc2[N+](=O)[O-])C(=O)c2ccccc21

1. 90 % of control
2. 96 % of control
3. 102 % of control
4. 100 % of control
5. 88 % of control
6. 103 % of control

Any idea what T/C was measured for `COc1cc(/C=C(\C#N)c2ccc(Cl)cc2)ccc1OCc1ccccc1` ?
89 % of control
